Target: HLA-B*0702 (Homo sapiens, UniProt P01889)
Construct: expressed in transfected cells; host or cells: human T2 cells transfected with HLA-B*0702 (T2-B7)
Assay: Measurement of peptide relative affinity to HLA-B*0702 (T2-B7 cells, ME-1 mAb staining)
Assay type: binding
Conditions: class symbols, Table IV
measurement-label: RA

Previously resolved entries follow.
{"input-sequence": "APRSPLAPL (Her-2/neu1069L9 optimized peptide derived from the cryptic peptide of SEQ ID NO2) [Her2/neu1069L9]", "RA": "++ (++ = RA < 1)"}
{"input-sequence": "APRRRLGCEL (TERT antigen peptide)", "RA": "+ (+ = 1 < RA < 10)"}
{"input-sequence": "APRTKAEML (MAGE-121.1 A1R3 optimized peptide)", "RA": "+ (+ = 1 < RA < 10)"}
{"input-sequence": "APRRLVQLL [TERT444A1]", "RA": "+ (+ = 1 < RA < 10)"}
{"input-sequence": "APRSLGLEL (HSP70_397R3L9 optimized peptide) [Hsp70397R3L9]", "RA": "++ (++ = RA < 1)"}

Please look at the following sequence next.
Incoming: Recorded RA of APRVSIRLPL (EphA2) , please.
Outgoing: ++ (++ = RA < 1)

* * *

Molecular target: HLA-B*0702 (Homo sapiens)
Construct: expressed in transfected cells; host or cells: human T2 cells transfected with HLA-B*0702 (T2-B7)
Assay: Measurement of peptide relative affinity to HLA-B*0702 (T2-B7 cells, ME-1 mAb staining)
Format: binding
measurement-label: Affinity for HLA-B*0702 (in words)

{"input-sequence": "EPVTKAEML [MAGE-A121.1]", "Affinity for HLA-B*0702 (in words)": "low affinity"}
{"input-sequence": "EPFTKAEML (MAGE-A121.2 antigen peptide)", "Affinity for HLA-B*0702 (in words)": "low affinity"}
{"input-sequence": "APRSLGLEL (HSP70_397R3L9 optimized peptide) [Hsp70397R3L9]", "Affinity for HLA-B*0702 (in words)": "strong affinity"}
{"input-sequence": "APREISSMVL (HSP70_115A1R3 optimized peptide) [Hsp70115A1R3]", "Affinity for HLA-B*0702 (in words)": "strong affinity"}
{"input-sequence": "APLSLGLET (Hsp70 397 antigen peptide)", "Affinity for HLA-B*0702 (in words)": "low affinity"}
{"input-sequence": "EPITKAEIL (MAGE-A121.4 antigen peptide)", "Affinity for HLA-B*0702 (in words)": "low affinity"}
{"input-sequence": "DPRRLVQLL [TERT444]", "Affinity for HLA-B*0702 (in words)": "low affinity"}

Incoming: Return reported Affinity for HLA-B*0702 (in words); argument: APRRLVQLL [TERT444A1]
Outgoing: strong affinity
